Test system: PC-3 prostate
Experiment summary: NCI-60 one-dose screen, 48 h (100 = growth as untreated, 0 = no growth, -100 = all killed)
Applied conditions: 10 µM
The panel holds about 83,000 compounds, 20% with a hit somewhere; the sample as a whole holds those more often.
Reported growth by item:
Give just the numeric value; % need not be written.

Take a look at these entries with their results.
O=C(Nc1cc(-c2ccccc2)[nH]n1)c1ccc(Cl)cc1	75.9
C/C(=N\NC(=O)c1ccccc1N)c1ccccc1O	50.3
CC(CC(=O)c1ccccc1)c1ccccc1 (centres undefined)	99.5

Now take the following compound into account.
[ask] Request - read-out growth | tested on PC-3 prostate | compound CC(C(=O)O)(C1CCCCC1)C1(O)CCCCC1 (centres undefined)
[reply] 94.9

* * *

Test system: SF-539 CNS
Experiment summary: NCI-60 one-dose screen, 48 h (100 = growth as untreated, 0 = no growth, -100 = all killed)
Applied conditions: 10 µM
About 83,000 compounds went through this panel and 20% of them were active in at least one assay; those are over-represented in the sample as a whole.
The compounds listed here are annotated with their growth.
Kindly provide the numeric value in % only, without the unit symbol.

CSC(=N\N=C\c1ccc(N(C)C)cc1)/N=C/N(C)C	96

[ask] Item "CO[C@H]1C[C@@H]2CC[C@@H](C)[C@@](O)(O2)C(=O)C(=O)N2CCCC[C@H]2C(=O)O[C@H]([C@H](C)C[C@@H]2CC[C@@H](O)[C@H](OC)C2)CC(=O)[C@H](C)C=C(C)[C@@H](O)[C@@H](OC)C(=O)[C@H](C)C[C@H](C)/C=C/C=C/C=C1C" has what recorded growth?
[reply] 30.4

[ask] Subsequent entry: CS(=O)CC1=NC(=N)N=C1CS(C)=O (centres undefined)
[reply] 99.5

[ask] Next compound: "CC(C)COC(=O)COC(=O)OCCOCCOC(=O)OCC(=O)OCC(C)C"
[reply] 80.5

[ask] Now consider "COc1cc(/C=N\Nc2ccccc2)ccc1OC(=O)c1ccccc1" and answer again.
[reply] 24.4

[ask] Param item: "CN(C)/N=C/c1ccccc1O"
[reply] 94.6

[ask] Then this compound: "N#Cc1ccc(NC(=O)Nc2cccc(C#N)c2)cc1"
[reply] 93.9

[ask] Then this compound: "O=C(O)CCCc1ccccc1"
[reply] 120

[ask] Can you check "CCn1c(=O)n(C)c2c(=O)n(C)c(=O)n(C)c21" next?
[reply] 106

[ask] Next compound up: "COCCOCCCl"
[reply] 106

[ask] Follow-up entry: "CCOc1ccc(/C=C/C(=O)c2ccccc2)cc1"
[reply] 105

[ask] // same read-out, input: "CCCCC/C=N/Nc1nc(C)cc(=O)[nH]1"
[reply] 108

[ask] And the next one, "Cc1ccc(O)c(C(=O)c2ccccc2)c1" ?
[reply] 101

[ask] Next: O=S(=O)(O)C(Nc1ccccc1)c1ccccc1 (centres undefined)
[reply] 93.6

[ask] Also, "C=CCNc1nnc(C)s1" please.
[reply] 99.9

[ask] And then "COc1cc(C(=O)N/N=C/c2cccc([N+](=O)[O-])c2)cc(OC)c1OC" , what is it?
[reply] 66.2

[ask] Subsequent entry: "S=c1[nH]ccn1-c1ccccc1Cl"
[reply] 103

[ask] Also, "c1csc(-c2cc(-c3cc(-c4cccs4)[nH]n3)n[nH]2)c1" please.
[reply] 93.8

[ask] // same read-out, input: Cc1ccc(C(O)C2CC2)cc1 (centres undefined)
[reply] 96.7

The measured values listed here are drawn from PubChem BioAssay (NCI).
